System: HCC-827
Assay: relative viability (nuclei count vs DMSO), 5 days (fraction); higher = more cells survive
Settings: first compound 0.04 µM
relative viability: recorded values
quantity measured: relative viability

molecule="C[C@@H]1CN(CC(=O)Nc2ccc3c(c2)Cc2cccc(-c4cc(=O)cc(N5CCOCC5)o4)c2S3)C[C@H](C)O1 + O=C(CCCCCCC(=O)Nc1ccccc1)NO [Vorinostat] (partner 1 µM)" number=0.801
molecule="C[C@@H]1CN(CC(=O)Nc2ccc3c(c2)Cc2cccc(-c4cc(=O)cc(N5CCOCC5)o4)c2S3)C[C@H](C)O1 + C[C@]1(O)C[C@@H](c2nc(-c3ccc4ccc(-c5ccccc5)nc4c3)c3c(N)nccn32)C1 [Linsitinib] (partner 1 µM)" number=1
molecule="C[C@@H]1CN(CC(=O)Nc2ccc3c(c2)Cc2cccc(-c4cc(=O)cc(N5CCOCC5)o4)c2S3)C[C@H](C)O1 + CS(=O)(=O)N1CCN(Cc2cc3nc(-c4cccc5[nH]ncc45)nc(N4CCOCC4)c3s2)CC1 [Pictilisib] (partner 1 µM)" number=0.987
molecule="COc1cc(N2CCC(C(N)=O)CC2)ccc1Nc1nc(N)c(Cl)c(Nc2ccccc2S(=O)(=O)C(C)C)n1 [HG-5-88-01] + Cc1nc(Nc2ncc(C(=O)Nc3c(C)cccc3Cl)s2)cc(N2CCN(CCO)CC2)n1 [Dasatinib] (partner 0.075 µM)" number=0.279
molecule="COc1cc(N2CCC(C(N)=O)CC2)ccc1Nc1nc(N)c(Cl)c(Nc2ccccc2S(=O)(=O)C(C)C)n1 [HG-5-88-01] + C[C@]1(O)C[C@@H](c2nc(-c3ccc4ccc(-c5ccccc5)nc4c3)c3c(N)nccn32)C1 [Linsitinib] (partner 1 µM)" number=0.953

====

System: NCI-H2085
Test: relative viability (nuclei count vs DMSO), 5 days (fraction); higher = more cells survive
Details: first compound 0.04 µM
# relative viability annotations
quantity measured: relative viability

molecule="C[C@@H]1CN(CC(=O)Nc2ccc3c(c2)Cc2cccc(-c4cc(=O)cc(N5CCOCC5)o4)c2S3)C[C@H](C)O1 + NC(=O)Nc1cc(-c2cccc(F)c2)sc1C(=O)N[C@H]1CCCNC1 [AZD7762] (partner 0.2 µM)" target_under_test=NCI-H2085 number=0.959
molecule="Clc1ccc(Nc2nnc(Cc3ccncc3)c3ccccc23)cc1 [Vatalanib] + CC1(C)CCC(c2ccc(Cl)cc2)=C(CN2CCN(c3ccc(C(=O)NS(=O)(=O)c4ccc(N[C@H](CCN5CCOCC5)CSc5ccccc5)c(S(=O)(=O)C(F)(F)F)c4)cc3)CC2)C1 [Navitoclax] (partner 0.5 µM)" target_under_test=NCI-H2085 number=1.12
molecule="C[C@@H]1CN(CC(=O)Nc2ccc3c(c2)Cc2cccc(-c4cc(=O)cc(N5CCOCC5)o4)c2S3)C[C@H](C)O1 + COc1cccc2cc(-c3nc([C@H]4CC[C@H](C(=O)O)CC4)n4ncnc(N)c34)[nH]c12 [OSI-027] (partner 0.5 µM)" target_under_test=NCI-H2085 number=0.97

====

Test system: EBC-1
Test: relative viability (nuclei count vs DMSO), 5 days (fraction); higher = more cells survive
Conditions: first compound 4 µM
quantity measured: relative viability

compound="COc1cc(N2CCC(C(N)=O)CC2)ccc1Nc1nc(N)c(Cl)c(Nc2ccccc2S(=O)(=O)C(C)C)n1 [HG-5-88-01] + O=C(c1cc(Cc2n[nH]c(=O)c3ccccc23)ccc1F)N1CCN(C(=O)C2CC2)CC1 [Olaparib] (partner 8 µM)" number=0.489
compound="COc1cc(N2CCC(C(N)=O)CC2)ccc1Nc1nc(N)c(Cl)c(Nc2ccccc2S(=O)(=O)C(C)C)n1 [HG-5-88-01] + CC(C)C[C@H](NC(=O)[C@H](Cc1ccccc1)NC(=O)c1cnccn1)B(O)O [Bortezomib] (partner 0.002 µM)" number=0.241
compound="Clc1ccc(Nc2nnc(Cc3ccncc3)c3ccccc23)cc1 [Vatalanib] + C[C@@H](Oc1cc(-c2cnn(C3CCNCC3)c2)cnc1N)c1c(Cl)ccc(F)c1Cl [Crizotinib] (partner 1 µM)" number=0.21
compound="COc1cc(N2CCC(C(N)=O)CC2)ccc1Nc1nc(N)c(Cl)c(Nc2ccccc2S(=O)(=O)C(C)C)n1 [HG-5-88-01] + COc1cc2c(Oc3ccc(NC(=O)C4(C(=O)Nc5ccc(F)cc5)CC4)cc3F)ccnc2cc1OCCCN1CCOCC1 [Foretinib] (partner 0.25 µM)" number=0.105
compound="Clc1ccc(Nc2nnc(Cc3ccncc3)c3ccccc23)cc1 [Vatalanib] + CS(=O)(=O)CCNCc1ccc(-c2ccc3ncnc(Nc4ccc(OCc5cccc(F)c5)c(Cl)c4)c3c2)o1 [Lapatinib] (partner 2 µM)" number=0.202
compound="Clc1ccc(Nc2nnc(Cc3ccncc3)c3ccccc23)cc1 [Vatalanib] + CS(=O)(=O)N1CCN(Cc2cc3nc(-c4cccc5[nH]ncc45)nc(N4CCOCC4)c3s2)CC1 [Pictilisib] (partner 1 µM)" number=0.411
